Effects Corn reference
System: corn
measurementDescription: Foliar spread test for upland field
Type: in vivo
Design: key: 0: normal development; 1: Less damaged; 2: Slightly damaged; 3: Moderately damaged; 4: Severely damaged; 5: All killed
testParameters: foliar spray 500 ppm, 3 weeks, rank vs non-treated
readout: Effects Corn

[
  {
    "molecule": "CCC(Oc1ccc(Cl)c(C(F)(F)F)c1)c1nc2cc(F)ccc2o1 (centres unmarked)",
    "readout": "Effects Corn",
    "assayResult": 2
  },
  {
    "molecule": "CCCC(Oc1cccc(C(F)(F)F)c1)c1nc2cc(C(F)(F)F)ccc2o1 (centres unmarked)",
    "readout": "Effects Corn",
    "assayResult": 2
  },
  {
    "molecule": "CCC(Oc1ccc(F)c(C(F)(F)F)c1)c1nc2cc(C#N)c(C#N)cc2o1 (centres unmarked)",
    "readout": "Effects Corn",
    "assayResult": 2
  },
  {
    "molecule": "CCC(Oc1cccc(C(F)(F)F)c1)c1nc2cc(Cl)c(C)cc2o1 (centres unmarked)",
    "readout": "Effects Corn",
    "assayResult": 2
  },
  {
    "molecule": "CCCC(Oc1cccc(C(F)(F)F)c1)c1nc2cc(S(C)(=O)=O)c(C)cc2o1 (centres unmarked)",
    "readout": "Effects Corn",
    "assayResult": 1
  }
]
